# target.desc: Aurora B (Homo sapiens, UniProt Q96GD4);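 also: aurora B inhibition measured in a mobility shift assay, underlying mean IC50 taken from two independent duplicate runs at 8 compound concentrations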
# Sequence (Q96GD4 whole entry): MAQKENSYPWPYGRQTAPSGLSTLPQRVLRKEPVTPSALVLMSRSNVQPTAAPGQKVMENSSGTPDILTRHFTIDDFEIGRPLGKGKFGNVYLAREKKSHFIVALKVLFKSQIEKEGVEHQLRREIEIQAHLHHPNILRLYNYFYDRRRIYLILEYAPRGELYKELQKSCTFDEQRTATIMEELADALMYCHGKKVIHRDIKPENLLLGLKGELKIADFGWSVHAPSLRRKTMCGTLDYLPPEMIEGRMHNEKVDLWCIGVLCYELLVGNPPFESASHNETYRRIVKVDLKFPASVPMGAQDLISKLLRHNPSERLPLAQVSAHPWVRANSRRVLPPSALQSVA
Friendly reminder: Ki below 7 µM is 1 (yes), at or above is 0 (no).

Would you please look over these solved cases?
* COc1cc(OC)cc(C(=O)Nc2cc(-c3ccncc3)c[nH]c2=O)c1 | 0 (no)
* Nc1cc(-c2cccnc2)c[nH]c1=O | 0 (no)

Query: A record lists CN1CCN(c2ccc(C(=O)Nc3cc(-c4ccncc4)c[nH]c3=O)cc2)CC1 . Is its Ki below 7 µM?
Reply: 1 (yes)

Query: A record lists COc1ncc(-c2ccncc2)cc1N . Is its Ki below 7 µM?
Reply: 0 (no)

* * *

# target.desc: Erk1 (Homo sapiens)
# Construct: purchased Perkin Elmer (ProfilerPro assay kit 1)
# Sequence (P27361 whole entry): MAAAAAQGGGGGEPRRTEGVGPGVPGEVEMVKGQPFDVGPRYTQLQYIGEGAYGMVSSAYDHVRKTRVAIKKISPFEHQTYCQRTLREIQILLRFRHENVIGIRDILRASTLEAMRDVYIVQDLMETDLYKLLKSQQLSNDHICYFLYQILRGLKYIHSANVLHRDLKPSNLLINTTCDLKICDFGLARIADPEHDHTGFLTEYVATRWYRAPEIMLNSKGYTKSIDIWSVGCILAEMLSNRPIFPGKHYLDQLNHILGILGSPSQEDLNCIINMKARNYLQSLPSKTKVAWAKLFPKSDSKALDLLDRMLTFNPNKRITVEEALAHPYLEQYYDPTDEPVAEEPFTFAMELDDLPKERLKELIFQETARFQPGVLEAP
# assay.comment: 26-kinase panel mobility shift assay, single concentration
# Assay type: biochemical
# applied.conditions: read-out: % Inhibition Erk1
Quick rule for you: inhibition at 100 µM at 20% or higher means 1 (yes), lower means 0 (no).

Would you please look over these solved cases?
- CNc1nccc(-c2c[nH]c(=O)c(N)c2)n1: 1 (yes)
- Cn1cc(-c2c[nH]c(=O)c(N)c2)cn1: 1 (yes)
- Nc1ccc[nH]c1=O: 0 (no)
- Nc1cc(-c2ccnc3ccccc23)c[nH]c1=O: 1 (yes)
- Cc1nc(O)c(N)cc1-c1ccncc1: 0 (no)

Query: Please check the record Nc1cc(-c2ccnc(NC3CC3)n2)c[nH]c1=O and state if its inhibition at 100 µM is at or above 20%.
Reply: 1 (yes)
